We begin with a simple list: items and their reported apparent KD of MS2 coat protein.
# System: MS2 coat protein
# assay.overview: apparent KD of MS2 coat protein; designed switch direction (-1 OFF switch, 1 ON switch): 1; higher = weaker reporter binding
# particulars: input ligand: FMN 200 uM
reported.property: apparent KD of MS2 coat protein (nM)

[[record]]
sequence_text = "CUGAGCAAUCUAGGAUAUCACGUCGAAUAGACGUGAGAAGGAGAUCAUAACAUGAGGAUCACCCAUGUAUUACAUGAAGCUCAG [SSNG1/7-A1] (Eterna round: R96, puzzle: Same State NG 1)"
measured_on = "MS2 coat protein"
reported_property = "apparent KD of MS2 coat protein"
value_unit = "nM"
recorded_value = 13.4

[[record]]
sequence_text = "UUAGAAUUGCAAGGAUAUCUAAUUUAGAUAGUAAGAGAAGGUGCUUUAUAGUUACAUGAGGAUCACCCAUGUUUUUUUUUUUAU [JR_SSNG1_Sub060] (Eterna round: R96, puzzle: Same State NG 1)"
measured_on = "MS2 coat protein"
reported_property = "apparent KD of MS2 coat protein"
value_unit = "nM"
recorded_value = 42.3

[[record]]
sequence_text = "AGAGGAGGAGCAGGAUAUUCGAAGGAGGACGUGGAAGAAGGGUUCAUGCGAUGACAUGAGGAUCACCCAUGUACCGCGCGUCGA [AK SSNG1-V2-15] (Eterna round: R96, puzzle: Same State NG 1)"
measured_on = "MS2 coat protein"
reported_property = "apparent KD of MS2 coat protein"
value_unit = "nM"
recorded_value = 381

[[record]]
sequence_text = "GCUAGAAUAAAAGCCAACAUGAGGAUCACCCAUGUAUGUUGGCAGGAUAUCGUAUGCAAAGCAUACGAGAAGGGCCAUACUAGC [Mat - Same State NG 3 - JL Mod - D24] (Eterna round: R96, puzzle: Same State NG 3)"
measured_on = "MS2 coat protein"
reported_property = "apparent KD of MS2 coat protein"
value_unit = "nM"
recorded_value = 49.8


====

# System: MS2 coat protein
# assay.overview: apparent KD of MS2 coat protein; designed switch direction (-1 OFF switch, 1 ON switch): -1; higher = weaker reporter binding
# particulars: Eterna round: R95; input ligand: FMN 200 uM
We begin with a simple list: items and their reported apparent KD of MS2 coat protein.
reported.property: apparent KD of MS2 coat protein (nM)

[[record]]
sequence_text = "AUAAGCUUUGAGAUCCUUAACAUGAGGAUCACCCAUGUUCGUCUUAUGAUGGUCUGAUCCCUGAGGAUCGGACCGUC [JL-sv1-2.01 Brourd Mod] (puzzle: Sensor v3, turn-off variant 1)"
reported_property = "apparent KD of MS2 coat protein"
recorded_value = 456

[[record]]
sequence_text = "AAUAAUUUUUUUUUUUUACAAGCUUUUUGCUCGUCUUAUACAUGAGGAUCACCCAUGUGGGUGAAAGAUAGAUUGUC [JMF's solution 1] (puzzle: Sensor v3, turn-off variant 2)"
reported_property = "apparent KD of MS2 coat protein"
recorded_value = 30.6

[[record]]
sequence_text = "AUAACAAGCUUUUUGUUCGUAGAACAUGAUGCUCGAGUCACAUGAGGAUCACCCAUGUCAACCAGAUAGAUAGUUGA [JR_SV3TOV2_Sub061] (puzzle: Sensor v3, turn-off variant 2)"
reported_property = "apparent KD of MS2 coat protein"
recorded_value = 41.2

[[record]]
sequence_text = "AUUAAAAUAUAGGAUAUCGAAUAUAUUAUUUAACGAGAAGGAUGAACAUGAGGAUCACCCAUGUGGUAUCAUGG [Mat - Exclusion 6 - JL Mod - D36] (puzzle: Exclusion 6)"
reported_property = "apparent KD of MS2 coat protein"
recorded_value = 157

[[record]]
sequence_text = "GGUACUAACACGAAAGUGUUAGUACAAUAAGCUUGUGAAACAUGAGGAUCACCCAUGUCCUCAUAAGCUCGUCUUAG [salish99_TOv2_r3_005] (puzzle: Sensor v3, turn-off variant 2)"
reported_property = "apparent KD of MS2 coat protein"
recorded_value = 13.4

